test system: HeLa cells; experiment: MTT cell viability, HeLa; assay type: cell-based; settings: Homo sapiens; Hela; MTT at 24 hours; Table 4; read-out: IC50 (μM) Hela
Listed molecules paired with reported IC50
Number in µM, nothing else.

// worked examples, IC50 included
[
  {
    "compoundStructure": "CC(=O)c1cc2c(o1)C(=O)c1cc(F)ccc1C2=O",
    "IC50 / µM": 0.488
  },
  {
    "compoundStructure": "CC(=O)c1cc2c(s1)C(=O)c1ccccc1C2=O",
    "IC50 / µM": 1.88
  }
]

Consider the record given below.
Consider the molecule COc1ccc(C(=O)c2cc3c(s2)C(=O)c2ccccc2C3=O)cc1 and give its measured IC50. 3.78
